Molecular target: Phosphatidylinositol 4,5-bisphosphate 3-kinase catalytic subunit alpha isoform (Homo sapiens)
Sequence (P42336 whole entry, canonical isoform): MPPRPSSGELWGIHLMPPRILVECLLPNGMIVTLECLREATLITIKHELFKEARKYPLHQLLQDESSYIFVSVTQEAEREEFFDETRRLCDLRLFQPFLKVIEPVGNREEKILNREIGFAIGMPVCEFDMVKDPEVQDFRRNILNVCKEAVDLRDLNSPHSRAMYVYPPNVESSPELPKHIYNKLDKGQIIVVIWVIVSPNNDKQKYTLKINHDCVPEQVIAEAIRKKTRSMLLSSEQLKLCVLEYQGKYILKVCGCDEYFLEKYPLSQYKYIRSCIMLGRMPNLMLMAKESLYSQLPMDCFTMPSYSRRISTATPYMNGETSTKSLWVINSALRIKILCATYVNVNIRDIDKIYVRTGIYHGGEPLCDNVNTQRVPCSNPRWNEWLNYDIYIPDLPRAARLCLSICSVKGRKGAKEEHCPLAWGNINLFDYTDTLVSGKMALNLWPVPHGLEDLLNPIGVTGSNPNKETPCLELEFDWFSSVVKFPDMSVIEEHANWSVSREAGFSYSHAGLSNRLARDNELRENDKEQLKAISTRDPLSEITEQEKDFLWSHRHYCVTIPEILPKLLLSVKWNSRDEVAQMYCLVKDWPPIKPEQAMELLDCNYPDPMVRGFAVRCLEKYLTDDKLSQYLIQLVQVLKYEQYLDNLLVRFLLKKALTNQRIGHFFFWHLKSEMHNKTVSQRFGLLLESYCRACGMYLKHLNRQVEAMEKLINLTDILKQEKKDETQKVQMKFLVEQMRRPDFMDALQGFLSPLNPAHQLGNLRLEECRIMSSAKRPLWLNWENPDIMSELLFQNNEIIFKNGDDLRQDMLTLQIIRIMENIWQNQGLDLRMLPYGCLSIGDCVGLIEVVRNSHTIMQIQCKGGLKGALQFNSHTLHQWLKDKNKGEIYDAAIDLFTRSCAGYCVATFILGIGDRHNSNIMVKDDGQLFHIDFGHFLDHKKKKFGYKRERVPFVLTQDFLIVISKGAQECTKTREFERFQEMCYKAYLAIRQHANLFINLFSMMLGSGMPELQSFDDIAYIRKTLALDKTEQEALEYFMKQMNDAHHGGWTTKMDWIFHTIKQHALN
Assay: p110alpha (alpha) PI3K Binding Assay: PI3K Binding assays are intended for determining the biochemical potency of small molecule PI3K inhibitors. The PI3K lipid kinase reaction is performed in the presence of PIP2:3PS lipid substrate (Promega #V1792) and ATP. Following the termination if the kinase reaction, turnover of ATP to ADP by the phosphorylation of the lipid substrate is detected using the Promega ADP-Glo¿ (Promega #V1792) assay.
pKi: −log10 of the molar value.
Each entry gets -1 if its pKi stays under 8, and 1 if its pKi is 8 or above.

Study these solved cases before continuing.
molecule=Cn1cc(-c2nc3cc(N[C@H](C(N)=O)C4CC4)cc4c3n2CCCO4)cn1 assignedclass=-1
molecule="CC[C@H](Oc1cc2c3c(c1)nc(-c1ccc4oc(N)nc4c1)n3CCCO2)C(N)=O (single isomer, unassigned)" assignedclass=1
molecule=Cn1ncnc1-c1nc2cc(N[C@H](C(N)=O)C3CC3)cc3c2n1CCCO3 assignedclass=-1
molecule="CC[C@@H](Oc1cc2c3c(c1)nc(-c1ccc4oc(N)nc4c1)n3CCCO2)C(N)=O (single isomer, unassigned)" assignedclass=1

Here is the next item to consider.
Problem: Evaluate NC(=O)[C@@H](Nc1cc2c3c(c1)nc(-c1ccc4c(n1)OCCO4)n3CCCO2)C1CC1 : pKi at minimum 8?
Solution: -1
